Value source: ChEMBL document CHEMBL1828616

# Protocol summary: Octanol-water partition coefficient, log P of the compound
# Format: physicochemical
List of logP values.
Observed property: logP

[[record]]
compound = "CC(C)=CCC/C(C)=C/C1=NOC(C)(c2cccs2)O1 (stereo not drawn)"
readout_value = 5.67

[[record]]
compound = "CC(C)=CCC/C(C)=C/C1=NOC(C)(c2ccco2)O1 (stereo not drawn)"
readout_value = 5.15

[[record]]
compound = "CC1(c2cccs2)ON=C(c2ccc3c(c2)OCO3)O1 (stereo not drawn)"
readout_value = 3.51

[[record]]
compound = "CC(C)=CCC/C(C)=C/C1=NOC(c2ccccn2)O1 (stereo not drawn)"
readout_value = 3.96

[[record]]
compound = "c1csc(C2ON=C(c3ccc4c(c3)OCO4)O2)c1 (stereo not drawn)"
readout_value = 2.97

[[record]]
compound = "CC(C)=CCC/C(C)=C/C1=NOC(c2cccs2)O1 (stereo not drawn)"
readout_value = 5.13

[[record]]
compound = "CC(C)=CCC/C(C)=C/C1ON=C(c2cccs2)O1 (stereo not drawn)"
readout_value = 4.74

[[record]]
compound = "CC(C)=CCC/C(C)=C/C1ON=C(c2ccco2)O1 (stereo not drawn)"
readout_value = 5.25

